Attribution: patent US20070219186A1

Quick reference: inhibition at 10 µM of the listed items.
# target of assay: human B-Raf (Homo sapiens, UniProt P15056)
# Construct: Flag; GST; made in house; host or cells: Sf9 insect cells (B-Raf); E. coli (MEK1-GST)
# Sequence (P15056 whole entry): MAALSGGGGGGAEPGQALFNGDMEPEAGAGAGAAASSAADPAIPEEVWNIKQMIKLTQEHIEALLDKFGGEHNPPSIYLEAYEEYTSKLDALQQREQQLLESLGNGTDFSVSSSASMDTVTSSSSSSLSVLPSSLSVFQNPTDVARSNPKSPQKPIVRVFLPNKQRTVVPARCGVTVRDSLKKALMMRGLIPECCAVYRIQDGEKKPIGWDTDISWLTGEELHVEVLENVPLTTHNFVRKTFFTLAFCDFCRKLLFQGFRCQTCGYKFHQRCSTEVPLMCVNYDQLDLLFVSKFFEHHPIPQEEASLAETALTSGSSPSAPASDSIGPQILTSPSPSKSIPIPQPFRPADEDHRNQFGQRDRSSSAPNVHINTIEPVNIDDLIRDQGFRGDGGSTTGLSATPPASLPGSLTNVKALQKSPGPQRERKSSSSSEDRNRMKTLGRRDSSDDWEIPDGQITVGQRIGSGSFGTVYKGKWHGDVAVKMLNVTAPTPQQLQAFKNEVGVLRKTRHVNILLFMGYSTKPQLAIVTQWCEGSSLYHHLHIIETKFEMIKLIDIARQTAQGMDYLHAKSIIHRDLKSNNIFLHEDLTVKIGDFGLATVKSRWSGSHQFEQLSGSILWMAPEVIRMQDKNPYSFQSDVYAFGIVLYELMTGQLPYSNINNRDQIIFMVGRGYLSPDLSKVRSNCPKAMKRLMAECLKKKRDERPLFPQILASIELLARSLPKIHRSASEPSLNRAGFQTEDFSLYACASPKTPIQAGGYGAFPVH
# measurement notes: B-Raf Kinase to MEK1 ELISA
# Type: biochemical
# condition: read-out: % Inhib./10 uM
# Experimental: TITLE: B-Raf Kinase to MEK1 ELISA PURPOSE: To discover B-Raf Kinase inhibitors that can inhibit growth of tumor cells which contain oncogenic forms of Receptor Tyrosine Kinases or K-Ras, or B-Raf kinase. […] B-Raf-1 is used to phosphorylate GST-MEK1. MEK1 phosphorylation is measured by a phospho-specific antibody (from Cell Signaling Technology, cat. #9121) that detects phosphorylation of two serine residues at positions 217 and 221 on MEK1. […] 11. Read plates in Wallac Victor model Plate Reader. […]

CCOC(=O)c1cnn2c(-c3ccc(N4CC(C)OC(C)C4)c(NC(=O)c4cccc(C(F)(F)F)c4)c3)ccnc12 (stereo not shown) :: 9%
O=C(Nc1cccc(-c2ccnc3c(Br)cnn23)c1)c1ccc(Cl)c(C(F)(F)F)c1 :: 58%

Form field: reported inhibition at 10 µM of `O=C(Nc1cccc(-c2ccnc3cc(-c4ccco4)nn23)c1)c1cccc(C(F)(F)F)c1`
45%

I would be grateful if you could share the reported inhibition at 10 µM for `CNC(=O)c1cnn2c(-c3cccc(NC(=O)c4cccc(C(F)(F)F)c4)c3)ccnc12` .
48%

Quick one: inhibition at 10 µM of `CN(C)CCCc1cc2nccc(-c3cccc(NC(=O)c4cccc(C(F)(F)F)c4)c3)n2n1` ?
24%

Entry `CCOC(=O)c1cnn2c(-c3cccc(NC(=O)c4cc(C(F)(F)F)ccc4Cl)c3)ccnc12` has what inhibition at 10 µM?
12%

###

# target of assay: human B-Raf (Homo sapiens)
# Construct: Flag; GST; made in house; host or cells: Sf9 insect cells (B-Raf); E. coli (MEK1-GST)
# measurement notes: B-Raf Kinase to MEK1 ELISA
# Assay type: biochemical
value type: IC50

Which IC50 is listed for `Nc1cccc(-c2cnn3c(-c4cccc(NC(=O)c5cccc(C(F)(F)F)c5)c4)ccnc23)c1` ?
100 nM

What measured IC50 goes with `CC(=O)c1ccccc1-c1cnn2c(-c3cccc(NC(=O)c4cccc(C(F)(F)F)c4)c3)ccnc12` ?
266 nM

// query IC50 value for entry `O=C(Nc1cccc(-c2ccnc3c(C(=O)NCCN4CCOCC4)cnn23)c1)Nc1ccc(Cl)c(C(F)(F)F)c1`
120 nM

State the recorded IC50 for this entry: `Cc1ccc(C(=O)Nc2cccc(-c3ccnc4c(-c5cccc(O)c5)cnn34)c2)cc1C(F)(F)F`
290 nM

###

# target of assay: human B-Raf (Homo sapiens)
# Construct: Flag; GST; made in house; host or cells: Sf9 insect cells (B-Raf); E. coli (MEK1-GST)
# measurement notes: B-Raf Kinase to MEK1 ELISA
# Type: biochemical
# condition: median; cpd concentrations from 10 μM to 30 nM in half log dilutions; read-out: Median IC50
value type: IC50 (nM)
Expressed in nM, but write only the number.

CN(C)CCOC(=O)c1cnn2c(-c3cccc(NC(=O)c4cccc(C(F)(F)F)c4)c3)ccnc12 :: 7070
CN(C)CCc1ccccc1-c1cnn2c(-c3cccc(NC(=O)c4cccc(C(F)(F)F)c4)c3)ccnc12 :: 318
CN(C)Cc1ccccc1-c1cnn2c(-c3cccc(NC(=O)c4cccc(C(F)(F)F)c4)c3)ccnc12 :: 117
CCOC(=O)c1cnn2c(-c3cccc(NC(=O)c4ccc(Cl)c(C(F)(F)F)c4)c3)ccnc12 :: 2490
CN(C)CCc1cccc(-c2cnn3c(-c4cccc(NC(=O)c5cccc(C(F)(F)F)c5)c4)ccnc23)c1 :: 40.7

Could you share which IC50 value was measured for `COCCC(=O)Nc1ccc(-c2cnn3c(-c4cccc(NC(=O)c5cccc(C(F)(F)F)c5)c4)ccnc23)cc1` ?
246

Using the record for `CC(=O)NCC(=O)Nc1cccc(-c2cnn3c(-c4cccc(NC(=O)c5cccc(C(F)(F)F)c5)c4)ccnc23)c1` , report its IC50.
49

// IC50 lookup, key: `O=C(Nc1cccc(-c2ccnc3cc(N4CCOCC4)nn23)c1)Nc1ccc(Cl)c(C(F)(F)F)c1`
200

###

Each entry below carries its recorded IC50.
# target of assay: human B-Raf (Homo sapiens)
# Construct: Flag; GST; made in house; host or cells: Sf9 insect cells (B-Raf); E. coli (MEK1-GST)
# measurement notes: B-Raf Kinase to MEK1 ELISA
# Type: biochemical
# condition: median; cpd concentrations from 10 μM to 30 nM in half log dilutions; read-out: Median IC50
Quick reminder: number only, in µM, skip the unit.

CCOC(=O)c1cnn2c(-c3cccc(NC(=O)Nc4ccc(C)c(C)c4)c3)ccnc12 [Example 42] :: 3.53
CCOC(=O)c1cnn2c(-c3cccc(NC(=O)Nc4ccc(C(F)(F)F)cc4)c3)ccnc12 [Example 35] :: 3.1
CN(C)CCCC(=O)Nc1ccc(-c2cnn3c(-c4cccc(NC(=O)c5cccc(C(F)(F)F)c5)c4)ccnc23)cc1 [Example 234] :: 0.019
CCOC(=O)c1cnn2c(-c3cccc(NC(=O)Nc4ccc(F)c(C(F)(F)F)c4)c3)ccnc12 [Example 44] :: 0.27
O=C(Nc1cccc(-c2ccnc3c(-c4cccnc4)cnn23)c1)Nc1ccc(Cl)c(Cl)c1 [Example 175] :: 0.45
COCC(=O)Nc1cccc(-c2cnn3c(-c4cccc(NC(=O)c5cccc(C(F)(F)F)c5)c4)ccnc23)c1 [Example 252] :: 0.082
O=C(Nc1cccc(-c2ccnc3cc(N4CCOCC4)nn23)c1)Nc1ccc(F)c(C(F)(F)F)c1 [Example 202] :: 0.12
O=C(Nc1cccc(-c2ccnc3c(C(=O)NCCN4CCOCC4)cnn23)c1)c1cccc(C(F)(F)F)c1 [Example 52] :: 8

Moving on to the next compound.
Need IC50 of CCOC(=O)c1cnn2c(-c3cccc(NC(=O)Cc4cccc(C(F)(F)F)c4)c3)ccnc12 [Example 97] , thanks.
8.6

###

# target of assay: human B-Raf (Homo sapiens, UniProt P15056)
# Construct: Flag; GST; made in house; host or cells: Sf9 insect cells (B-Raf); E. coli (MEK1-GST)
# measurement notes: B-Raf Kinase to MEK1 ELISA
# Type: biochemical
# condition: read-out: % Inhib./10 uM
Classes by inhibition at 10 µM: 1 (below 50%), 2 (50% to below 80%), 3 (80% or more)

Field: example entries. Status: answers known.
O=C(Nc1cccc(-c2ccnc3c(-c4ccncc4)cnn23)c1)c1ccc(F)c(C(F)(F)F)c1 :: 2
O=C(Nc1cccc(-c2ccnc3c(-c4ccncc4)cnn23)c1)Nc1cccc(C(F)(F)F)c1 :: 2
Cc1cnc2cc(-c3ccncc3)nn2c1-c1cccc(NC(=O)c2cccc(C(F)(F)F)c2)c1 :: 3
O=C(Nc1cccc(-c2ccnc3cc(-c4ccncc4)nn23)c1)c1ccc(Cl)c(Cl)c1 :: 2
Nc1ccc(-c2cnn3c(-c4cccc(NC(=O)c5cccc(C(F)(F)F)c5)c4)ccnc23)cn1 :: 3

Band of `CCOC(=O)c1cnn2c(-c3cccc(NC(=O)Nc4ccc(C#N)cc4)c3)ccnc12` ?
1

Given `CCOC(=O)c1cnn2c(-c3cccc(NC(=O)c4cccc(C(F)(F)F)c4)c3)ccnc12` , name the class its inhibition at 10 µM places it in.
2

Field: class (inhibition at 10 µM) — entry: `CCOC(=O)c1cnn2c(-c3cccc(NC(=O)Cc4ccc5c(c4)OCO5)c3)ccnc12`
1

Using the reported inhibition at 10 µM, which band applies to `CCOC(=O)c1cnn2c(-c3cccc(NC(=O)c4ccc(Cl)c(C(F)(F)F)c4)c3)ccnc12` ?
2

Categorize the following entry: `CCOC(=O)c1cnn2c(-c3cccc(NC(=O)Nc4ccc(C)c(C)c4)c3)ccnc12`
2

Which category fits this record: `O=C(Nc1cccc(-c2ccnc3cc(N4CCOCC4)nn23)c1)Nc1ccc(Cl)c(C(F)(F)F)c1`
3

###

# target of assay: human B-Raf (Homo sapiens, UniProt P15056)
# Construct: Flag; GST; made in house; host or cells: Sf9 insect cells (B-Raf); E. coli (MEK1-GST)
# measurement notes: B-Raf Kinase to MEK1 ELISA
# Assay type: biochemical
# condition: read-out: % Inhib./10 uM
Think of 50% as a floor: if inhibition at 10 µM stands on it or above, it is True; beneath it, False.

Take a look at these entries with their results.
COCCC(=O)Nc1cccc(-c2cnn3c(-c4cccc(NC(=O)c5cccc(C(F)(F)F)c5)c4)ccnc23)c1 :: True
N#Cc1cccc(-c2cnn3c(-c4cccc(NC(=O)c5cccc(C(F)(F)F)c5)c4)ccnc23)c1 :: False
O=C(Nc1cccc(-c2ccnc3c(Br)cnn23)c1)Nc1ccc(Cl)c(Cl)c1 :: True

Textbook exercise: given the entry `O=C(Nc1cccc(-c2ccnc3c(Br)cnn23)c1)Nc1ccc(Cl)c(C(F)(F)F)c1` , state whether its inhibition at 10 µM is greater than or equal to 50%.
True

Hi, just wondering whether `O=C(Nc1cccc(-c2ccnc3c(C(=O)NCCN4CCOCC4)cnn23)c1)Nc1ccc(Cl)c(C(F)(F)F)c1` shows inhibition at 10 µM of 50% or higher.
True

Hi team, for `O=C(Nc1cccc(-c2ccnc3cc(-c4ccncc4)nn23)c1)c1ccccc1` , is the recorded inhibition at 10 µM at or above 50%?
False

Assess whether reported inhibition at 10 µM for `CCOC(=O)c1cnn2c(-c3ccc(OCc4ccccc4)c(NC(=O)c4ccc(C)c(C(F)(F)F)c4)c3)ccnc12` sits at 50% or higher.
False

Record `CCOC(=O)c1cnn2c(-c3cccc(NC(=O)c4ccc(Cl)c(Cl)c4)c3)ccnc12` ; criterion: inhibition at 10 µM no lower than 50%. Met?
False
